Catalogue of binders with associated Kd
Molecular target: T1, recombinant human SDF-1α (Peprotech) (human, UniProt P48061 22-89)
T1 construct: Bought protein (Peprotech, cat. 300-28A); also called rh SDF-1α; Stromal cell-Derived Factor-1
T1 sequence (P48061 22-89 limits assumed): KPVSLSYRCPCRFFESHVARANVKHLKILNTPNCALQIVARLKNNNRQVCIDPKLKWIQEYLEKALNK
Experiment: SPR (Biacore), antibody amine-coupled to CM5 chip, SDF-1 flowed at 5-40 nM right after dilution to maximize the dimer population, 1:1 Langmuir fit
// return numeric value only (unit: nM, not printed)

Some entries whose results are on file:
1C6 human monoclonal antibody (antibody, V domains shown, Whole human monoclonal antibody with kappa light chain (VK L18), from a HuMAb Mouse; also called Z1/C6; mAb Z group antibody) VH: EVQLVESGRGLVQPGGSLRLSCAASGFTFSSYWMSWVRQAPGKGLEWVANMNQDGSEKYYVDSVKGRFTISRDNAKNSLYLQMNSLRAEDTAVYYCARDLTGPYYYDYYGMDVWGQGTTVTVSS VL: AIRMTQSPSSVSASVGDRVTITCRASQGISSALAWYQQTPGKAPKLLIYDASSLESGVPSRFSGSGSGTDFTLTISSLQPEDFATYYCQQFNSYPRTFGQGTKVEIK    0.46
1H2 human monoclonal antibody (antibody, V domains shown, Whole human monoclonal antibody with kappa light chain (VK L18), from a KM Mouse; also called B1/H2; B1H2) VH: QVQLVQSGAEVKKPGASVKVSCKVSGYTFTKLSVHWVRQAPGKGLEWMGSFDPEDGETIYSQRFQGRVTMTEDTSTDTAYMELSSLRSEDTAVYYCATEGQWLVAYYGMDVWGQGTMVTVSS VL: EIVLTQSPSSLSASVGDRVTITCRASQGISSALAWYQQKPGKAPKLLIYDASSLESGVPSRFSGSGSGTDFTLTISSLQPEDFATYYCQQFNSYPLTFGGGTKVEIK    1.32

Okay, now this binder:
For the binder shown here, 1D3 human monoclonal antibody (antibody, V domains shown, Whole human monoclonal antibody with kappa light chain (VK L18), from a KM Mouse; also called B1/D3; mAb B group antibody) VH: EVQLVQSGAEVKKPGASVKVSCKVSGYTLTKLSVHWVRQAPGKGLEWMGSFDPEDGETIYSQRFQGRVTMTEDTSTDTAYMELTSLRSEDTAVYYCATEGQWLVAYYGMDVWGQGTTVTVSS VL: EIVLTQSPSSLSASVGDRVTITCRASQGISSALAWYQQKPGKAPKLLIYDASSLESGVPSRFSGSGSGTDFTLTISSLQPEDFATYYCQQFNSYPLTFGGGTKVEIK , give the reported Kd.
0.63

Value source: patent US20100158902A1
